Recorded values, source patent US20260242735A1.

- tested on: human CD33 P244A (human, UniProt P20138 18-364)
- Sequence (P20138 18-364 P244A limits assumed): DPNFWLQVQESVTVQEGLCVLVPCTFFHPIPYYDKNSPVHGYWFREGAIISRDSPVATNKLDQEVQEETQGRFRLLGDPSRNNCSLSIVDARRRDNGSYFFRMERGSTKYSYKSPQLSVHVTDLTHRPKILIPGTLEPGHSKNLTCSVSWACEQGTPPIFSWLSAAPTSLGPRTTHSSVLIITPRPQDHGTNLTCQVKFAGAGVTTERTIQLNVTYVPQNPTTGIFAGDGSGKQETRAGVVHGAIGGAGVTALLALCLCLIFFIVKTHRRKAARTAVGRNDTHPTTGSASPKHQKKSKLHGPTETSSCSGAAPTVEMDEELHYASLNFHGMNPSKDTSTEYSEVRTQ
- assay summary: alanine scan, flow cytometry, HEK293-T;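 note: antibody binding to each alanine-substituted CD33 mutant expressed transiently in HEK293-T, read as fluorescence minus background, mean of duplicates, relative to wild-type CD33 set as 100%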

{"columns": ["binder", "Mean % WT Binding, % WT binding"],
 "data": [
  ["Refmab #4 (antibody, V domains shown, The alanine scan used IgG or Fab) VH: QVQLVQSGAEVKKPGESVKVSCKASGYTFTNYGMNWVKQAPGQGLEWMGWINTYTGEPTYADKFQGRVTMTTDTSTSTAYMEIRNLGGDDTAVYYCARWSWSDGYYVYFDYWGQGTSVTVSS VL: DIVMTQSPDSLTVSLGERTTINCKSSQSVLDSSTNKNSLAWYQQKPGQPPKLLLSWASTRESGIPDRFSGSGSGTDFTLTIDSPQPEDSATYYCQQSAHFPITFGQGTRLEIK", 100],
  ["Refmab #3 (antibody, V domains shown, The alanine scan used IgG or Fab) VH: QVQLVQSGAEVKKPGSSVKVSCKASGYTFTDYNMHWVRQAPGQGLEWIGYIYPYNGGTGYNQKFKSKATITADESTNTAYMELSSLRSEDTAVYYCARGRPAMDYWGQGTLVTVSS VL: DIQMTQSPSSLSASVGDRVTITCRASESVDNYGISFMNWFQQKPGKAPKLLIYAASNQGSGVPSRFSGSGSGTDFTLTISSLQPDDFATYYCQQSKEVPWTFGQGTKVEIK", 138],
  ["Refmab #2 (antibody, V domains shown, The alanine scan used IgG or Fab) VH: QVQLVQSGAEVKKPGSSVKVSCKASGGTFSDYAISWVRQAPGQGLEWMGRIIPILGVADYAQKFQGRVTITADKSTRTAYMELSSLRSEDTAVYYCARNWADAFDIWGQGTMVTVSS VL: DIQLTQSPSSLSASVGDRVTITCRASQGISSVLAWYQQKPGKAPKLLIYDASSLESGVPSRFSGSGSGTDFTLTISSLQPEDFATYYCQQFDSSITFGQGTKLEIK", 112]
]}
